Readings of mass density for the listed molecules
Conditions: 303.15 K; 101.33 kPa; Liquid; Vibrating tube method
Measured Property: mass density (kg/m3)

- Molecule: "CC(C)C[P+](C)(CC(C)C)CC(C)C.Cc1ccc(S(=O)(=O)[O-])cc1 [triisobutylmethylphosphonium p-toluenesulfonate]"
  Data Value: 1065
- Molecule: "CCCC[n+]1ccc(C)cc1.F[B-](F)(F)F [1-butyl-4-methylpyridinium tetrafluoroborate]"
  Data Value: 1186
- Molecule: "COS(=O)(=O)[O-].Cn1cc[n+](C)c1 [1,3-dimethylimidazolium methylsulfate]"
  Data Value: 1323
- Molecule: "CCCCn1cc[n+](C)c1.O=S(=O)([O-])O [1-butyl-3-methylimidazolium hydrogen sulfate]"
  Data Value: 1220
- Molecule: "CCCCCCCC[n+]1ccn(C)c1.[Cl-] [1-methyl-3-octylimidazolium chloride]"
  Data Value: 1007
- Molecule: "CCCCCCCC[n+]1ccn(C)c1.F[P-](F)(F)(F)(F)F [1-octyl-3-methylimidazolium hexafluorophosphate]"
  Data Value: 1231
- Molecule: "CCn1cc[n+](C)c1.COS(=O)(=O)[O-] [1-ethyl-3-methylimidazolium methylsulfate]"
  Data Value: 1289
- Molecule: "CCCCn1cc[n+](C)c1.F[P-](F)(F)(F)(F)F [1-butyl-3-methylimidazolium hexafluorophosphate]"
  Data Value: 1363
- Molecule: "CCCCCCn1cc[n+](C)c1.F[P-](F)(F)(F)(F)F [1-hexyl-3-methylimidazolium hexafluorophosphate]"
  Data Value: 1288

---

Settings: 308.15 K, Ring tensiometer
Note to self: surface tension liquid-gas under 40 mN/m means 1.0, ties and anything higher get 0.0.

- Molecule: "CCCCn1cc[n+](C)c1.F[P-](F)(F)(F)(F)F [1-butyl-3-methylimidazolium hexafluorophosphate]"
  Class Assignment: 0.0
- Molecule: "CC(C)C[P+](C)(CC(C)C)CC(C)C.Cc1ccc(S(=O)(=O)[O-])cc1 [triisobutylmethylphosphonium p-toluenesulfonate]"
  Class Assignment: 1.0
- Molecule: "CCCCCCCC[n+]1ccn(C)c1.[Cl-] [1-methyl-3-octylimidazolium chloride]"
  Class Assignment: 1.0
- Molecule: "COS(=O)(=O)[O-].Cn1cc[n+](C)c1 [1,3-dimethylimidazolium methylsulfate]"
  Class Assignment: 0.0
- Molecule: "CCCCn1cc[n+](C)c1.O=S(=O)([O-])O [1-butyl-3-methylimidazolium hydrogen sulfate]"
  Class Assignment: 0.0

---

Details: 333.15 K; 101.33 kPa; Liquid
Note to self: viscosity under 70 mPa·s means Yes, ties and anything higher get No.

- Molecule: "CCCCCCCC[n+]1ccn(C)c1.F[P-](F)(F)(F)(F)F [1-octyl-3-methylimidazolium hexafluorophosphate]"
  Class Assignment: "No"
- Molecule: "CCCCCCn1cc[n+](C)c1.F[P-](F)(F)(F)(F)F [1-hexyl-3-methylimidazolium hexafluorophosphate]"
  Class Assignment: "Yes"
- Molecule: "CCCC[n+]1ccc(C)cc1.F[B-](F)(F)F [1-butyl-4-methylpyridinium tetrafluoroborate]"
  Class Assignment: "Yes"
- Molecule: "CCCCCCCC[n+]1ccn(C)c1.[Cl-] [1-methyl-3-octylimidazolium chloride]"
  Class Assignment: "No"
- Molecule: "CCn1cc[n+](C)c1.COS(=O)(=O)[O-] [1-ethyl-3-methylimidazolium methylsulfate]"
  Class Assignment: "Yes"
- Molecule: "CC(C)C[P+](C)(CC(C)C)CC(C)C.Cc1ccc(S(=O)(=O)[O-])cc1 [triisobutylmethylphosphonium p-toluenesulfonate]"
  Class Assignment: "No"
- Molecule: "CCCCn1cc[n+](C)c1.F[P-](F)(F)(F)(F)F [1-butyl-3-methylimidazolium hexafluorophosphate]"
  Class Assignment: "Yes"
- Molecule: "COS(=O)(=O)[O-].Cn1cc[n+](C)c1 [1,3-dimethylimidazolium methylsulfate]"
  Class Assignment: "Yes"
- Molecule: "CCCCn1cc[n+](C)c1.O=S(=O)([O-])O [1-butyl-3-methylimidazolium hydrogen sulfate]"
  Class Assignment: "No"
